- Tested on: M14
- method.notes: NCI tumour cell line growth inhibition, 48 h
Active and inactive are the calls of the source. Cut-off read from the data, not from the text of the source: active = GI50 up to about 1.1 µM and inactive = higher.
value.kind: GI50

Guide cases for GI50, answers given:
COc1ccc(CNc2cc(OC)cc(OC)c2)cc1 = > 100 µM (inactive)
CC1(C)C(=O)C(C)(C)C1=NN = > 100 µM (inactive)
Cc1ccc2nc3[nH]nc(N)c3nc2c1 = > 100 µM (inactive)
O=C(CSc1nnc(-c2ccccn2)s1)N/N=C/c1ccccc1 = > 100 µM (inactive)
COc1ccc(CN(Cc2ccc(OC)cc2)C(=O)CC2(O)C=CCC2)cc1 (stereo unspecified) = > 100 µM (inactive)
O=C(NC1CCN(Cc2ccccc2)CC1)c1cccc(I)c1 = 17.2 µM (inactive)
COc1ccc2c(c1OC)C(=O)O[C@@H]2[C@H]1c2c(cc3c(c2OC)OCO3)CCN1C [NOSCAPINE] = 39.2 µM (inactive)
c1ccc(-c2nnc(-c3nsc4ccccc34)o2)cc1 = > 100 µM (inactive)

For each listed entry, give its GI50.
1. CCOC(=O)C(C(=O)c1ccccc1)=C1NCCN1
2. O=C(CSc1nnc(Cc2ccccc2)o1)Nc1ccccc1Cl

> 100 µM (inactive)
> 100 µM (inactive)

# GI50 (molecule: `O=[N+]([O-])/C(C(Cl)=C(Cl)Cl)=C(\Nc1cccc2ccccc12)Sc1ccccc1` ) is 24.9 µM (inactive)

====

- Tested on: M14
- method.notes: NCI tumour cell line growth inhibition, 48 h
Activity calls are given as the source filed them. Rule as the data show it: active = GI50 up to about 1.1 µM and inactive = higher.
Task for the reader: assign each of the following compounds its reported GI50.

COc1ccc2cc(C(=O)O)ccc2c1OC = > 100 µM (inactive)
O=C(Nc1nc2ccccc2n1Cc1ccc(Cl)cc1)NC12CC3CC(CC(C3)C1)C2 = 25 µM (inactive)
CCCCc1ccc(Nc2nc(S)c3[nH]cnc3n2)cc1 = 24.2 µM (inactive)
CC1=[N+](C)CCCN1C = > 100 µM (inactive)
[N-]=[N+]=NCC1OC(n2cnc3c(N)ncnc32)C2OC12 (stereo unspecified) = > 100 µM (inactive)

// moving on: another record for GI50
# GI50 (compound: CCOC(=O)C(NC(=O)C(CCCCNP(=O)(OCC)OCC)NC(=O)C(C)NC(C)=O)C(C)C (stereo unspecified) ) is > 100 µM (inactive)

====

- Test system: SK-MEL-2
- method.notes: NCI tumour cell line growth inhibition, 48 h
Active and inactive are the calls of the source. Rule as the data show it: active = GI50 up to about 1.1 µM and inactive = higher.
value.kind: GI50

Guide cases for GI50, answers given:
CCCCN(CC)C(=O)C(=O)C1C(=O)Nc2ccccc2[S+]1[O-] (stereo not given) = > 100 µM (inactive)
CC1=C(CO)C(=O)O[C@@H]([C@@H](CO)[C@H]2CCC3C4C[C@@H](O)[C@@]5(O)CC=CC(=O)[C@]5(C)C4CC[C@@]32C)C1 (stereo not given in full) = 53.6 µM (inactive)
Cn1c(=O)nc2n(-c3ccc(Cl)cc3)c3ccc(Cl)cc3nc-2c1=O = 4.36 µM (inactive)

For each listed entry, give its GI50.
1. COc1ccc(/C=C2\N=C(SC)N(CN3CCCCC3)C2=O)cc1
2. C=CC[C@]12C=C(OC)[C@@H](O)[C@](OC)(C(c3cc(OC)c4c(c3)OCO4)[C@H]1C)[C@H]2OC(C)=O (stereo not given in full)
3. CC1=[N+](C)CCCN1C
4. CCOC(=O)Oc1cc2ccsc2c2c1c1ccccc1n2C(=O)OCC
5. Cc1c2cnccc2c(C)c2c1c1ccccc1n2CC1CO1 (stereo not given)
6. O=C1C2C3CC4C5C3C1C5C1(SCCS1)C42 (stereo not given)

1. > 100 µM (inactive)
2. > 100 µM (inactive)
3. > 100 µM (inactive)
4. 48.3 µM (inactive)
5. 1.66 µM (inactive)
6. > 100 µM (inactive)

# GI50 (molecule: `COc1cccc2c(Nc3ccc(S(=O)(=O)Nc4ncccn4)cc3)c3ccc([N+](=O)[O-])cc3nc12` ) is 89.9 µM (inactive)

====

- Tested on: SNB-19
- method.notes: NCI tumour cell line growth inhibition, 48 h
The source made the active and inactive calls. Cut-off read from the data, not from the text of the source: active = GI50 up to about 1.1 µM and inactive = higher.
Permitted responses: active, inactive

Take a look at these entries with their results.
Cn1c(=O)nc2n(-c3ccc(Cl)cc3)c3ccc(Cl)cc3nc-2c1=O = inactive
Cc1ccc(C2=CC(=O)OC(C[P+](c3ccccc3)(c3ccccc3)c3ccccc3)(c3ccccc3)O2)cc1 (stereo not given) = inactive
O=C(c1ccccc1)c1nc2ccc(Cl)cc2c2c1CCCO2 = inactive

GET /call?item= `CCOC(=O)/C(C#N)=C/N(CC)/N=C/c1ccccc1` returns the recorded outcome of this test.
inactive

GET /call?item= Cc1cc(O)c2c(c1)OC1(C)CCC3C(C)(C)CCCC34COC2C14 (stereo not given) returns the recorded outcome of this test.
inactive

GET /call?item= COc1ccc(C2c3cc4c(cc3OC(NNc3ccccc3)C2C)OCO4)cc1 (stereo not given) returns the recorded outcome of this test.
inactive

GET /call?item= `CN1CCN(c2ccncc2S(=O)(=O)N2CCN(C)CC2)CC1` returns the recorded outcome of this test.
inactive

GET /call?item= `CS(=O)(=O)c1ccc(NNc2cc(=O)[nH]c(=O)[nH]2)cc1` returns the recorded outcome of this test.
inactive

GET /call?item= `CCOc1ccc(NCc2cc(OC)c(OC)c(OC)c2)cc1` returns the recorded outcome of this test.
inactive

GET /call?item= `O=[N+]([O-])c1ccc(Cl)cc1N/N=C/c1ccnc2ccccc12` returns the recorded outcome of this test.
inactive

====

- Test system: CAKI-1
- method.notes: NCI tumour cell line growth inhibition, 48 h
The source made the active and inactive calls. No stated cut-off is given here; in the data, active = GI50 up to about 1.1 µM and inactive = higher.
value.kind: GI50

Guide cases for GI50, answers given:
O=c1[nH]nc(Cc2ccccc2)n1/N=C/c1ccc([N+](=O)[O-])o1 = 3.11 µM (inactive)
COc1ccc(-c2c(C#N)c(N)n(C3OC(CO)C(O)C(O)C3O)c(=S)c2C#N)cc1 (centres undefined) = > 100 µM (inactive)
Cc1ccccc1C(=O)Oc1ccc(O)cc1 = > 100 µM (inactive)
CC(C)C(=O)/C=C/c1c(Cl)cccc1Cl = 3.47 µM (inactive)
CC(Cc1ccccc1)Nc1ncnc2c1ncn2C1OC(CO)CC1O (centres undefined) = > 100 µM (inactive)
Cc1ccnc(NS(=O)(=O)c2ccc(NC3=CC(=O)C(=O)c4ccccc43)cc2)n1 = > 100 µM (inactive)
COc1cc2c(cc1OCCN1C(=O)c3cccc4cccc(c34)C1=O)N=C[C@@H]1CCCN1C2=O = 7.5 µM (inactive)
COc1ccc(OC)c([N+](=O)[O-])c1-c1nc2sc(Cl)cn2c1/C=N/N=C(N)N = 17.1 µM (inactive)
CCN(CC)CCn1c2c3ccccc3ccc2c2oc(=O)c3ccccc3c21 = > 100 µM (inactive)
CC1C2CC(CC2O)C1(C)C (centres undefined) = > 100 µM (inactive)

For each listed entry, give its GI50.
1. COc1ccc(S(=O)(=O)N(CC(=O)O)c2ccccc2)cc1
2. COC(=O)c1nn2ccc3ccccc3c2c1C(=O)OC
3. c1cnc2c(c1)ccc1cccnc12
4. CC1(C)OC(CP(c2ccccc2)c2ccccc2)C(CP(c2ccccc2)c2ccccc2)O1 (centres undefined)
5. CC(C)CC(NC(=O)c1cccc(O)c1O)C(=O)NCc1cc(CNC(=O)C(CC(C)C)NC(=O)c2cccc(O)c2O)cc(CNC(=O)C(CC(C)C)NC(=O)c2cccc(O)c2O)c1 (centres undefined)
6. CSC1=N[C@H](c2ccccc2)CS1
7. COc1ccc2c(c1OC)C(=O)O[C@@H]2[C@H]1c2c(cc3c(c2OC)OCO3)CCN1C [NOSCAPINE]

["> 100 µM (inactive)", "48.9 µM (inactive)", "3.18 µM (inactive)", "2.92 µM (inactive)", "46.3 µM (inactive)", "> 100 µM (inactive)", "63 µM (inactive)"]

For each listed entry, give its GI50.
1. CC(C(O)c1ccccc1)N(C)/N=N/c1nc2c([nH]1)c(=O)n(C)c(=O)n2C (centres undefined)
2. COC(=O)C1OC(O[C@H]2CC[C@]3(C)[C@H]4CC=C5[C@@H]6CC(C)(C)CC[C@]6(C(=O)OC6OCC(O)C(O)C6OC6OC(C)C(OC7OCC(OC8OCC(O)C(O)C8O)C(O)C7O)C(O)C6O)[C@H](O)C[C@@]5(C)[C@]4(C)CC[C@H]3C2(C)C)C(O)C(O)C1O (some centres undefined)

1: 58.6 µM (inactive); 2: 2.87 µM (inactive)

====

- Test system: NCI-H460
- method.notes: NCI tumour cell line growth inhibition, 48 h
The source made the active and inactive calls. Rule as the data show it: active = GI50 up to about 1.1 µM and inactive = higher.
Permitted responses: active, inactive

Take a look at these entries with their results.
COc1ccc(-n2c(C)nc3ccc(NC(=S)Nc4ccccc4)cc3c2=O)cc1 = inactive
Cc1cc(C=O)c2c(=O)c3c(O)ccc(/C=C/C(C)C)c3oc2c1 = inactive
[N-]=[N+]=NCC1OC(n2cnc3c(N)ncnc32)C2OC12 (configuration not stated) = inactive
O=C1Cc2c([nH]c3ccc(Br)cc23)-c2cc(O)c(O)cc2N1 = inactive
COc1cccc(-c2cc(=O)c3ccc(C)nc3[nH]2)c1 = active
O=C1NC(=O)/C(=C/c2ccc(S(=O)(=O)N/N=C/c3ccc(Cl)cc3)cc2)N1 = inactive
COc1ccc(CNc2cc(OC)cc(OC)c2)cc1 = inactive
CC1(C)OC(CP(c2ccccc2)c2ccccc2)C(CP(c2ccccc2)c2ccccc2)O1 (configuration not stated) = active

GET /call?item= `c1ccc2c(c1)N=c1ccccc1=P21c2ccccc2Nc2ccccc21` returns the recorded outcome of this test.
active

GET /call?item= `CN1CCN(c2ccncc2S(=O)(=O)N2CCN(C)CC2)CC1` returns the recorded outcome of this test.
inactive

GET /call?item= `COc1cccc(CCNc2c(C#N)c3nc4ccccc4n3c3ccccc23)c1` returns the recorded outcome of this test.
active

GET /call?item= `Cc1c(/C=N/NC(=S)N2CCCCC2)c(=O)n(-c2ccccc2)n1C` returns the recorded outcome of this test.
inactive

GET /call?item= `CCn1c(-c2ccc(F)cc2)nc2c1C(=O)c1ccccc1C2=O` returns the recorded outcome of this test.
inactive

GET /call?item= `Nc1cccc(S(=O)(=O)NCC(=O)O)c1` returns the recorded outcome of this test.
inactive

GET /call?item= `CCOC(=O)Cc1c(C)c2cc(C(=O)c3ccccc3)c(O)cc2oc1=O` returns the recorded outcome of this test.
inactive

GET /call?item= `COc1ccc(-n2c(=O)c3nc[nH]c3n(-c3ccc(OC)cc3)c2=S)cc1` returns the recorded outcome of this test.
inactive

GET /call?item= `COC(=O)Nc1nc2cc(NS(=O)(=O)c3cccs3)ccc2[nH]1` returns the recorded outcome of this test.
inactive

GET /call?item= C[C@]12CCCC(=O)C1C[C@H](C(=O)O)CC2 (some centres not stated) returns the recorded outcome of this test.
inactive

GET /call?item= `COc1cc2ccc3c4cc(OC)c(OC)cc4c[n+](C)c3c2cc1O` returns the recorded outcome of this test.
inactive

GET /call?item= `CCCCNC(=O)OCCN=c1c2ccccc2ccc2ccccc12` returns the recorded outcome of this test.
inactive

GET /call?item= CN1NC(c2ccc(Cl)cc2)=C(C#N)C(=O)CC1c1ccccc1 (configuration not stated) returns the recorded outcome of this test.
inactive

GET /call?item= COc1cc(C2c3cc4c(cc3[C@@H](N(C)c3ccc(N(C)C)cc3)C3COC(=O)C23)OCO4)cc(OC)c1O (some centres not stated) returns the recorded outcome of this test.
active

Where do these numbers come from? They come from ChEMBL document CHEMBL1201862.
